Measured growth inhibition, listed per entry for reference.
# ASSAY_PROCEDURE: NCI Yeast Anticancer Drug Screen. Data for the cln2 rad14 strain (AID 165);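 note: 0% = growth equal to vehicle treated cultures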
# CONDITION_CONTEXT: S. cerevisiae cln2 rad14 strain, at 50.0 µM, stronger effect = higher value
This is part of a sample that, as a whole, favours compounds with a hit. Of some 79,000 tested, about 15% had one in any assay.
Quick reminder: number only, in %, skip the unit.

{"COMPOUND": "CCC[CH2][Pb]([CH2]CCC)([O]C(C)=O)[O]C(C)=O", "OBS_VALUE": 92.3}
{"COMPOUND": "CCCCCCCCCCCCCCCCP(=O)(O)OCC(N)C(=O)O (stereo unspecified)", "OBS_VALUE": 60.9}

--- query ---
Per the records, this compound ( `O=c1oc2ccccc2c(O)c1C(c1ccc(-c2ccccc2)cc1)c1c(O)c2ccccc2oc1=O` ) has growth inhibition equal to 85.2
